B1: TPR t1 (parent)
chain: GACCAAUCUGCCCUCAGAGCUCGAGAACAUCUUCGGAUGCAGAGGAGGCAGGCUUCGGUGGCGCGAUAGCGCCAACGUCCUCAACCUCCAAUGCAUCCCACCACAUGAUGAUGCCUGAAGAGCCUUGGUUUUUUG

- Variants of: B1
- ASSAY: polymerase ribozyme fitness, log enrichment relative to wild type (log ratio); higher = more active; in vitro selection for triplet polymerase activity
Label Fulfilled for high-side polymerase ribozyme fitness (log ratio) (at or above -3) and Not fulfilled for low-side polymerase ribozyme fitness (log ratio) (below it).

Q) API: above_or_equal(metric=polymerase ribozyme fitness (log ratio), cutoff=-3) for item GACCUAUCUGCCCUCAGAGCUCGAGAACAUCUUCGGAUGCAGUGGAGGCAGGCUUCGGUGGCACGAUAGCGCCAACGUCCUCAACCUCCAAUGCAUCCCACCACAUGAUGAUGCCUGAAGAGCCUUGGUUUUUUG [A5U A43U G63A]
A) Not fulfilled

Q) Also check GACCAAUCAGCCCUCAGAGCUCGAGAACAUCUUCGGAUGCAGAGGAGGCAGGCUUCGGUGGCGCGAUAGCGCCAACGUCUUCAACCUCCAAUGCAUCCCAUCACAUGAUGUUGCCAGAAGAGCCUUGGUUUUUUG [U9A C80U C101U A111U U116A]
A) Not fulfilled

Q) Also check GACCAAUCUGCCCUCAGAGCUCGAGAACAUCUUCGGAUGCAGAGGAGGCAGGCUUCGGUGGCGCGAUAGCGCCAACGACCUCAACCUCCAAUGCAUCCCACCACAUGAUGAUGACUGAAGAGCCUUGGUUUUUUG [U78A C114A]
A) Fulfilled

Q) Again, but for GACCAAUCUGCCCUGAGAGCUCGAGAAAAUCUUCGGAUGCAGAUGAGGCAGUCUUCGGUGGCGCGAUAUCGCCAACGUCCUCAACCUCCAAUGCAUCCCACCACAUGAUGAUGCCUGAAGAGCCUUGGUUUUUUG [C15G C28A G44U G52U G69U]
A) Not fulfilled

Q) Item: GACCAAUCUGCCCUCAGAGCUCGAGAACAUCUUCGGAUGCAGAGGAGUCAGGCUUCGGUGGCGCGAUAGCGCCAACGUCCUCAACCUCCAAAGCAUCCCACCACAUGAUGAUGCCUGAAGAGCCUUGGUUUUUUG [G48U U92A]
A) Not fulfilled

Q) What about this variant? GACCAAUCUGCCCUCAGAGCUCGAGAACAUCUUCGGAUGCAGAGGAGGCAGGCUUCGGUGGCGGGAUAGCGCCAACGUCCUCAACCUCCAAUGCAUCCCACCACAUGAUGGUGCCUGAAGAGCCUUGGUUUUUUG [C64G A111G]
A) Not fulfilled

Q) Quick one: GACCAAUCUGCCCUCAGAGCUCGAGAACAUCAUCGGAUUCAGAGCAGGCAGGCUUCGGUGGCGGGAUAGCGCCAACGUCCUCAACCUCCAAUGCAUCCCACCACAUGAUGAUGACUGAAGAGCCUUGGUUUUUUG [U32A G39U G45C C64G C114A]
A) Not fulfilled

Q) Now the variant GACCAAUCUGCCCUCAGAGCUCGAGAACAUCUUCGGAUGCAGAGGAGGCAGUCUUCCGUGGCGCGAUAGCGCCAACGUCCUCAACCUCCAAUGCAUGCCACCACAUGAUGAUGACUGAUGAGCCUUGGUUUUUUG [G52U G57C C97G C114A A119U]
A) Not fulfilled

Q) Further, for GACCAAUCUGCCCUCAGAGCUCGAGAACAUCUUCGGAUGCGGAGGAGGCAGGCUUCGGUGGCGCGAUAGCGCCAACGUCCUCUACCUCCAAUGCAUCCCACCACAUGAUGAUGCCUGAAGAGCCUUGGUUUUUUG [A41G A83U] ?
A) Fulfilled

Q) Proceed to GACCAAUCUGCCCUCAGAGCUCGAGAACAUCUUCGGAUGCAGAGGAGGCAGGCUUCGGUGGCGCGAUAGCGCCAACGUCCUCGACCUCAAAUGCAUCCCACCACAUGAUGAUGCCUGAAGAGCCUUGGUUUUUUG [A83G C89A]
A) Not fulfilled

Q) Now consider GACCAAUCUGCCCUCAGAGCUCGAGAACAUCUUCGGAUGCAGAGGAACCAGGCUUCGGUGGCGCGAUAGCGCCAACGUCCUCAACCUCCAAUGCAUCCCUCCACAUGAUGAAGCCUGAAGAGCCUUGGUUUUUUG [G47A G48C A100U U112A] .
A) Fulfilled
